Experiment: chemical genetic growth profiling, strain panel (AID 1159580);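 further: tested at 20 µM; growth read once vehicle control cultures reached saturation at 30 °C; 1 = growth at the plate median or of vehicle wells; lower values mean less growth of the strain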
Conditions: S. cerevisiae deletion strains, growth OD, locus YOR106W, strain vam3, stronger effect = lower value
Screen size: about 5,500 compounds; about 2,000 (36%) were called active. Not shown: some 18% with an inconclusive outcome. The list shows a part of the results.
The label TRUE is reserved for normalized growth strictly under 1; FALSE covers values equal to or above it.

>  <compound>
O=C(c1ccccc1)c1ccc2n1CCC2C(=O)O (stereo not drawn)

>  <classification>
FALSE

$$$$
>  <compound>
COc1ccc(CC(=O)c2ccc(O)cc2O)cc1

>  <classification>
TRUE

$$$$
>  <compound>
O=C(/C=C/c1ccccc1)c1ccc(O[C@@H]2O[C@H](CO)[C@@H](O)[C@H](O)[C@H]2O)cc1O

>  <classification>
TRUE

$$$$
>  <compound>
O=c1c(O)cccc2cc(O)c(O)c(O)c12

>  <classification>
TRUE

$$$$
>  <compound>
C=CC[C@@H]1/C=C(\C)C[C@H](C)C[C@H](OC)[C@H]2O[C@@](O)(C(=O)C(=O)N3CCCC[C@H]3C(=O)O[C@H](/C(C)=C/[C@@H]3CC[C@@H](O)[C@H](OC)C3)[C@H](C)[C@@H](O)CC1=O)[C@H](C)C[C@@H]2OC

>  <classification>
TRUE

$$$$
>  <compound>
Cn1c(=O)c2c(ncn2CCO)n(C)c1=O

>  <classification>
FALSE

$$$$
>  <compound>
COc1ccc([C@@H](C)C(=O)c2ccc(O)cc2O)cc1

>  <classification>
TRUE

$$$$
>  <compound>
CC(C)N1C(=O)c2ccccc2NS1(=O)=O

>  <classification>
TRUE

$$$$
>  <compound>
CC(=O)OCC1=C(C(=O)O)N2C(=O)[C@@H](NC(=O)CSc3ccncc3)[C@H]2SC1

>  <classification>
FALSE

$$$$
>  <compound>
O=C1C=CC(=O)c2ccccc21

>  <classification>
TRUE

$$$$
>  <compound>
Cn1c(=O)c2c(ncn2C)n(C)c1=O

>  <classification>
TRUE

$$$$
>  <compound>
CC(=O)Nc1c(I)cc(I)c(C(=O)O)c1I

>  <classification>
TRUE

$$$$

---

Experiment: chemical genetic growth profiling, strain panel (AID 1159580);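 further: tested at 20 µM; growth read once vehicle control cultures reached saturation at 30 °C; 1 = growth at the plate median or of vehicle wells; lower values mean less growth of the strain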
Conditions: S. cerevisiae deletion strains, growth OD, locus YOR001W, strain rrp6, stronger effect = lower value
In all, about 5,500 compounds went through this assay and about 2,000 (36%) were called active. Not shown: some 18% with an inconclusive outcome. The list shows a part of the results.
Reported normalized growth is given for each of the following compounds.
measurement.name: normalized growth

>  <compound>
O=C(Nc1ccc([N+](=O)[O-])cc1Cl)c1cc(Cl)ccc1O

>  <measured.result>
0.944

$$$$
>  <compound>
CC1CC(OC(=O)c2ccccc2O)CC(C)(C)C1 (stereo unspecified)

>  <measured.result>
0.996

$$$$
>  <compound>
CC(C)C1CCC(C(=O)N[C@@H](Cc2ccccc2)C(=O)O)CC1 (stereo partly specified)

>  <measured.result>
0.967

$$$$
>  <compound>
CO/N=C(/C(=O)NC1C(=O)N2C(C(=O)OCOC(=O)C(C)(C)C)=C(/C=C\c3scnc3C)CSC12)c1csc(N)n1 (stereo unspecified)

>  <measured.result>
0.973

$$$$
>  <compound>
CC12CCC(O)CC1CCc1ccccc12 (stereo unspecified)

>  <measured.result>
0.967

$$$$
>  <compound>
CC(C)[C@@H]1CC[C@@H](C)C[C@H]1OC(=O)c1ccccc1

>  <measured.result>
0.999

$$$$

---

Reported normalized growth is given for each of the following compounds.
Test: chemical genetic growth profiling, strain panel (AID 1159580);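 further: tested at 20 µM; growth read once vehicle control cultures reached saturation at 30 °C; 1 = growth at the plate median or of vehicle wells; lower values mean less growth of the strain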
Settings: S. cerevisiae deletion strains, growth OD, locus YOR144C, strain elg1, stronger effect = lower value
The campaign covered roughly 5,500 compounds. About 2,000 (36%) were called active. Another 18% or so got no clear call; they are omitted. The list shows a part of the results.
measurement.name: normalized growth

>  <compound>
O=C1C(=O)c2ccccc2C(O)=C1C1CCC(c2ccc(Cl)cc2)CC1 (stereo not given)

>  <measured.result>
0.988 (inactive)

$$$$
>  <compound>
O=C1NS(=O)(=O)c2ccccc21

>  <measured.result>
0.993 (inactive)

$$$$
>  <compound>
COc1cc([C@@H]2c3cc4c(cc3[C@H](O)[C@H]3COC(=O)[C@H]23)OCO4)cc(OC)c1OC

>  <measured.result>
1.01 (inactive)

$$$$
>  <compound>
COC(=O)c1cc(OC)c(=O)c2c(OC)c(OC)ccc2c1

>  <measured.result>
0.987 (inactive)

$$$$
>  <compound>
O=C1C=C(O)c2ccccc2C1=O

>  <measured.result>
0.966 (inactive)

$$$$
>  <compound>
O=C(/C=C/c1ccc(O)cc1)c1ccc(O)cc1O

>  <measured.result>
0.99 (inactive)

$$$$
>  <compound>
OC[C@H]1O[C@@H](Oc2ccc(O)cc2)[C@H](O)[C@@H](O)[C@@H]1O

>  <measured.result>
1.02 (inactive)

$$$$
>  <compound>
O=C(N[C@@H](CO)[C@H](O)c1ccc([N+](=O)[O-])cc1)C(Cl)Cl

>  <measured.result>
1.01 (inactive)

$$$$
>  <compound>
O=C(O)c1cc(=O)c2ccccc2[nH]1

>  <measured.result>
0.994 (inactive)

$$$$
>  <compound>
O=C1c2ccccc2C(=O)c2ccccc21

>  <measured.result>
0.992 (inactive)

$$$$
>  <compound>
NC(Cc1ccc(Cl)cc1)C(=O)O (stereo not given)

>  <measured.result>
1 (inactive)

$$$$
>  <compound>
CC(C)[C@@H]1CC[C@@H](C)CC1=O

>  <measured.result>
1 (inactive)

$$$$
>  <compound>
COc1ccc(NS(=O)(=O)c2ccc(N)cc2)nn1

>  <measured.result>
0.992 (inactive)

$$$$
>  <compound>
CN1C(=O)CC[C@H]1c1cccnc1

>  <measured.result>
1.01 (inactive)

$$$$
>  <compound>
CC(=O)Nc1c(I)cc(I)c(C(=O)O)c1I

>  <measured.result>
0.995 (inactive)

$$$$
>  <compound>
O=C(O)CCC(=O)OC[C@@H](NC(=O)C(Cl)Cl)[C@H](O)c1ccc([N+](=O)[O-])cc1

>  <measured.result>
0.988 (inactive)

$$$$
>  <compound>
Cc1c(NC(C)C)c(=O)n(-c2ccccc2)n1C

>  <measured.result>
0.97 (inactive)

$$$$
>  <compound>
CC(=O)OC[C@@]1(O)C[C@@]23CCC4c5ccoc5CC[C@]4(C)C2CC[C@@H]1C3 (stereo not given in full)

>  <measured.result>
0.97 (inactive)

$$$$
>  <compound>
CC[C@H]1OC(=O)[C@H](C)[C@@H](O[C@H]2C[C@@](C)(OC)[C@@H](O)[C@H](C)O2)[C@H](C)[C@@H](O[C@@H]2O[C@H](C)C[C@H](N(C)C)[C@H]2O)[C@](C)(O)C[C@@H](C)/C(=N/OCOCCOC)[C@H](C)[C@@H](O)[C@]1(C)O

>  <measured.result>
1 (inactive)

$$$$
>  <compound>
CCC[C@@H]1C[C@@H](C(=O)N[C@H]([C@H]2O[C@H](SC)[C@H](O)[C@@H](O)[C@H]2O)[C@H](C)O)N(C)C1

>  <measured.result>
0.985 (inactive)

$$$$
>  <compound>
CC(C)N1C(=O)c2ccccc2NS1(=O)=O

>  <measured.result>
0.999 (inactive)

$$$$
>  <compound>
COc1cc(OC)c2c(OC)c(-c3ccc4c(c3)OCO4)c(=O)oc2c1

>  <measured.result>
0.982 (inactive)

$$$$
>  <compound>
O=C(/C=C/c1ccccc1)c1c(O)cc(O)cc1O

>  <measured.result>
1 (inactive)

$$$$
>  <compound>
CC(C)=CCC/C(C)=C/CO

>  <measured.result>
0.994 (inactive)

$$$$
>  <compound>
CON

>  <measured.result>
0.995 (inactive)

$$$$

---

Test: chemical genetic growth profiling, strain panel (AID 1159580);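 further: tested at 20 µM; growth read once vehicle control cultures reached saturation at 30 °C; 1 = growth at the plate median or of vehicle wells; lower values mean less growth of the strain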
Conditions: S. cerevisiae deletion strains, growth OD, locus YPR119W, strain clb2, stronger effect = lower value
Out of some 5,500 compounds screened, about 2,000 (36%) were called active. Another 18% or so got no clear call; they are omitted. Some of the results follow.
measurement.name: normalized growth

>  <compound>
CC(C)[C@@H]1CC[C@@H](C)CC1=O

>  <measurement.name>
normalized growth

>  <measured.result>
1 (inactive)

$$$$
>  <compound>
CC(=O)OC[C@@]1(O)C[C@@]23CCC4c5ccoc5CC[C@]4(C)C2CC[C@@H]1C3 (stereo not given in full)

>  <measurement.name>
normalized growth

>  <measured.result>
0.967 (inactive)

$$$$
>  <compound>
O=C(N[C@@H](CO)[C@H](O)c1ccc([N+](=O)[O-])cc1)C(Cl)Cl

>  <measurement.name>
normalized growth

>  <measured.result>
1 (inactive)

$$$$
>  <compound>
COc1cc(O)ccc1C(C)=O

>  <measurement.name>
normalized growth

>  <measured.result>
0.984 (inactive)

$$$$
>  <compound>
O=C(O)CCC(=O)OC[C@@H](NC(=O)C(Cl)Cl)[C@H](O)c1ccc([N+](=O)[O-])cc1

>  <measurement.name>
normalized growth

>  <measured.result>
0.982 (inactive)

$$$$
